This collection of values is drawn from patent US20230219965A1.

- TEST_PROTOCOL: ADME solubility determination in PBS at pH 2.0 and pH 7.4
- Type: physicochemical
- CONDITION_SET: phosphate buffered saline, 25 °C, pH 7.4, aqueous buffer, thermodynamic from solid, PBS pH 7.4, 25° C., read-out: Solubility at pH 7.4
Give measured solubility at 24 h for each item. Keep answers brief.

Sample answers from the record:
> print(dat)
                                   molecule  endpoint.value
1  CC(C)n1ncc(Cl)c1-c1cc2n(n1)CCC(=O)N2Cc1ccc(-c2cn(C)c(C(F)(F)F)n2)cc1 [Example 116]         < 10 µM
2  CC(C)n1ncc(Cl)c1-c1cc2n(n1)CCC(=O)N2Cc1ccc(-c2nn(C)cc2C#N)cc1 [Example 133]         < 10 µM
3  CCn1cc(C(F)(F)F)nc1-c1ccc([C@@H](C)n2c(=O)ccn3nc(-c4c(OC)ncnc4C4CC4)nc23)cc1 [Example 338]         < 10 µM

Provide each entry's solubility at 24 h from the list below.
1. COc1cc(CN2C(=O)CCn3nc(-c4c(OC)ncnc4C(C)C)nc32)ccc1-c1nc(C(F)(F)F)cn1C(C)C [Example 46]
2. CCn1cc(C(F)(F)F)nc1-c1ccc(CN2C(=O)CCn3nc(-c4c(Cl)cnn4C(C)C)cc32)cc1 [Example 97]

1: ≥ 10 µM; 2: < 10 µM

====

- TEST_PROTOCOL: ADME solubility determination in PBS at pH 2.0 and pH 7.4
- Format: physicochemical
- CONDITION_SET: phosphate buffered saline, 25 °C, pH 7.4, aqueous buffer, thermodynamic from solid, PBS pH 7.4, 25° C., read-out: Solubility at pH 7.4
Give measured solubility at 24 h for each item. Keep answers brief.

Sample answers from the record:
> print(dat)
                                smiles.code  endpoint.value
1  COc1cc([C@@H](C)N2C(=O)CCn3nc(-c4c(OC)ncnc4C4CC4)cc32)ccc1-c1nc(C(F)(F)F)cn1C(C)C         < 10 µM
2  Cc1cn(C)nc1-c1ccc(CN2C(=O)CCn3nc(-c4c(Cl)cnn4C(C)C)cc32)cc1         < 10 µM
3  CCn1cc(C(F)(F)F)nc1-c1ccc([C@H](C)N2C(=O)CCn3nc(-c4c(Cl)cnn4C(C)C)nc32)cc1F         < 10 µM
4  COc1ncnc(C2CC2)c1-c1nc2n(n1)CCC(=O)N2Cc1ccc(-c2nc(C(F)(F)F)cn2C)c(F)c1         ≥ 10 µM
5  COc1ncnc(C2CC2)c1-c1cc2n(n1)CCCN2Cc1ccc(-n2nc(C(F)(F)F)cc2C)cc1         < 10 µM
6  CC(C)n1ncc(Cl)c1-c1cc2n(n1)CCCN2Cc1ccc(-c2nc(C(F)(F)F)cn2C)c(F)c1         < 10 µM
7  CCn1cc(C(F)(F)F)nc1-c1ccc(CN2C(=O)CCn3nc(-c4c(Cl)cnn4C(C)C)nc32)cc1F         < 10 µM
8  Cc1cnn(C(C)C)c1-c1nn2c(c1Cl)N(Cc1ccc(-c3nc(C(F)(F)F)cn3C)cc1)C(=O)CC2         < 10 µM

Provide each entry's solubility at 24 h from the list below.
1. COc1ncnc(C2CC2)c1-c1nc2n(n1)CCC(=O)N2[C@@H](C)c1ccc(-c2nc(C(F)(F)F)cn2C)c(F)c1
2. COc1ncnc(C2CC2)c1-c1cc2n(n1)CCC(=O)N2Cc1ccc(-n2nc(C(F)(F)F)cc2OC)c(F)c1
3. CCn1cc(C(F)(F)F)nc1-c1ccc(CN2CCCn3nc(-c4c(OC)ncnc4C4CC4)cc32)cc1F

1: ≥ 10 µM; 2: < 10 µM; 3: < 10 µM
